Experiment: Drug repurposing screens with cells derived from glioblastoma tumor samples (AID 1345199); note: % is set by controls: 0 for no effect and ±100 for the full control effect
Conditions: GBM patient neurospheres viability, ATP luminescence, 48 h; at 45.9 µM (top of the series); tumour line D
Records with an inconclusive call do not appear.
Answer each item with its documented activity, negative = cell killing.
Numbers only, in %.

These recorded examples may help you get a feel for the data.
# COMPOUND, activity, negative = cell killing (%)
data = [
    ("Cc1cccc(C)c1NC(=O)c1ccccc1C(=O)O", -18.5),
    ("CCOC(=O)C(C#N)=C(c1ccccc1)c1ccccc1", -4.23),
    ("CC(=O)NC(=O)c1ccccc1O", -8.37),
    ("O=C1OC2(c3ccccc31)c1cc(Br)c(O)c(Br)c1Oc1c2cc(Br)c(O)c1Br", -6.67),
    ("O=S(c1cc(Cl)cc(Cl)c1O)c1cc(Cl)cc(Cl)c1O", -25),
    ("CCCCC(CC)COC(=O)/C=C/c1ccc(OC)cc1 (configuration not stated)", -6.07),
    ("O=C(Nc1ccc([N+](=O)[O-])cc1)Nc1ccc([N+](=O)[O-])cc1", -14.3),
    ("NC(=O)C1(N2CCCCC2)CCN(CCCC(=O)c2ccc(F)cc2)CC1", -28),
    ("CC(=O)NCCCCCC(=O)O", -10),
    ("Nc1ccc(S(=O)(=O)NCc2ccccc2)cc1", -1.8),
]

I'm hoping you can list activity, negative = cell killing for every compound here, please.
1. CC(C)=CCOc1ccc(/C=C/C(=O)c2ccc(OCC=C(C)C)cc2OCC(=O)O)cc1
2. CCCN(CCC)S(=O)(=O)c1ccc(C(=O)O)cc1

Resp:
[-25.2, 6.49]

I'm hoping you can list activity, negative = cell killing for every compound here, please.
1. CCN[C@@H]1C[C@H](N)[C@@H](OC2OC(CN)=CCC2N)[C@H](O)[C@H]1O[C@H]1OC[C@](C)(O)[C@H](NC)[C@H]1O (some centres not stated)
2. NS(=O)(=O)Cc1noc2ccccc12
3. NC1CCN(c2nc3c(cc2F)c(=O)c(C(=O)O)cn3-c2ccc(F)cc2F)C1 (configuration not stated)
4. C=C[C@H]1CN2CC[C@H]1C[C@@H]2[C@@H](O)c1ccnc2ccc(OC)cc12
5. CC(C)NCC(O)c1ccc2ccccc2c1 (configuration not stated)

Resp:
14.1
-13.1
-30
-6.69
-5.15
